pIC50 overview
target: Histone deacetylase 4 (Homo sapiens, UniProt P56524)
Sequence (P56524 whole entry): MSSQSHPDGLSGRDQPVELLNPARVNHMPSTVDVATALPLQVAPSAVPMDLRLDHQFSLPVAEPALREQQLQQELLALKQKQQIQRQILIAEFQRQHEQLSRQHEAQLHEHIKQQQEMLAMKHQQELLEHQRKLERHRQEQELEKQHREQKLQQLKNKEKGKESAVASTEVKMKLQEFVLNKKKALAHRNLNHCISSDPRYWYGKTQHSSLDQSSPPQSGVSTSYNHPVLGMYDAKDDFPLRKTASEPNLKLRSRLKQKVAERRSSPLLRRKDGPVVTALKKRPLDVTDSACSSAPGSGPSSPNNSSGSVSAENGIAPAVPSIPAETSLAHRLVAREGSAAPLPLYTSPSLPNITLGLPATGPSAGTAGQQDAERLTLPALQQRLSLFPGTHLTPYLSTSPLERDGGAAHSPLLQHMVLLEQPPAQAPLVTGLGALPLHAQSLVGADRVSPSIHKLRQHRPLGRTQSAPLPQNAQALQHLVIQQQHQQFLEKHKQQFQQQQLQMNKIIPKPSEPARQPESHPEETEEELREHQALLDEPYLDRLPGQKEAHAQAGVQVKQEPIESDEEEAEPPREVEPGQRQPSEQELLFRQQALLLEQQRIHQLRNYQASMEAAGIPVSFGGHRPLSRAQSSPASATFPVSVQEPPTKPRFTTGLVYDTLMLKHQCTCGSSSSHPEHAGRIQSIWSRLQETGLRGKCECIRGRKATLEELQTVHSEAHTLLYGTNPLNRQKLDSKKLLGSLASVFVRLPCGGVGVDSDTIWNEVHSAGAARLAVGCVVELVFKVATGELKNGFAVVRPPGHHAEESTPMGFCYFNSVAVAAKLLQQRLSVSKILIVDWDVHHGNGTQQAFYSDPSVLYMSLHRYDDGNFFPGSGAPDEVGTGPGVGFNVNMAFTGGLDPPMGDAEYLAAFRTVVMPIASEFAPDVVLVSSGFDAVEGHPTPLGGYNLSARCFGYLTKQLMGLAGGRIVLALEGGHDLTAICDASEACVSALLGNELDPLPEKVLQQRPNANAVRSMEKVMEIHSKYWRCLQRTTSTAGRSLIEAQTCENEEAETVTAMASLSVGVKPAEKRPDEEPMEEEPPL
pIC50: −log10 of the molar value.
parameter: pIC50

[
  {
    "smiles.record": "O=C(/C=C/c1ccc(/C=N/OCCN2CCOCC2)cc1)NO",
    "assay.system": "Histone deacetylase 4 (Homo sapiens, UniProt P56524)",
    "parameter": "pIC50",
    "value": 4.79
  },
  {
    "smiles.record": "O=C(/C=C/c1ccc(/C=N/OCc2ccc([N+](=O)[O-])cc2)cc1)NO",
    "assay.system": "Histone deacetylase 4 (Homo sapiens, UniProt P56524)",
    "parameter": "pIC50",
    "value": 5.69
  },
  {
    "smiles.record": "O=C(/C=C/c1ccc(/C=N/OCc2c(F)c(F)c(F)c(F)c2F)cc1)NO",
    "assay.system": "Histone deacetylase 4 (Homo sapiens, UniProt P56524)",
    "parameter": "pIC50",
    "value": 4.41
  }
]

###

molecular target: Histone deacetylase 5 (Homo sapiens)
Sequence (Q9UQL6 whole entry): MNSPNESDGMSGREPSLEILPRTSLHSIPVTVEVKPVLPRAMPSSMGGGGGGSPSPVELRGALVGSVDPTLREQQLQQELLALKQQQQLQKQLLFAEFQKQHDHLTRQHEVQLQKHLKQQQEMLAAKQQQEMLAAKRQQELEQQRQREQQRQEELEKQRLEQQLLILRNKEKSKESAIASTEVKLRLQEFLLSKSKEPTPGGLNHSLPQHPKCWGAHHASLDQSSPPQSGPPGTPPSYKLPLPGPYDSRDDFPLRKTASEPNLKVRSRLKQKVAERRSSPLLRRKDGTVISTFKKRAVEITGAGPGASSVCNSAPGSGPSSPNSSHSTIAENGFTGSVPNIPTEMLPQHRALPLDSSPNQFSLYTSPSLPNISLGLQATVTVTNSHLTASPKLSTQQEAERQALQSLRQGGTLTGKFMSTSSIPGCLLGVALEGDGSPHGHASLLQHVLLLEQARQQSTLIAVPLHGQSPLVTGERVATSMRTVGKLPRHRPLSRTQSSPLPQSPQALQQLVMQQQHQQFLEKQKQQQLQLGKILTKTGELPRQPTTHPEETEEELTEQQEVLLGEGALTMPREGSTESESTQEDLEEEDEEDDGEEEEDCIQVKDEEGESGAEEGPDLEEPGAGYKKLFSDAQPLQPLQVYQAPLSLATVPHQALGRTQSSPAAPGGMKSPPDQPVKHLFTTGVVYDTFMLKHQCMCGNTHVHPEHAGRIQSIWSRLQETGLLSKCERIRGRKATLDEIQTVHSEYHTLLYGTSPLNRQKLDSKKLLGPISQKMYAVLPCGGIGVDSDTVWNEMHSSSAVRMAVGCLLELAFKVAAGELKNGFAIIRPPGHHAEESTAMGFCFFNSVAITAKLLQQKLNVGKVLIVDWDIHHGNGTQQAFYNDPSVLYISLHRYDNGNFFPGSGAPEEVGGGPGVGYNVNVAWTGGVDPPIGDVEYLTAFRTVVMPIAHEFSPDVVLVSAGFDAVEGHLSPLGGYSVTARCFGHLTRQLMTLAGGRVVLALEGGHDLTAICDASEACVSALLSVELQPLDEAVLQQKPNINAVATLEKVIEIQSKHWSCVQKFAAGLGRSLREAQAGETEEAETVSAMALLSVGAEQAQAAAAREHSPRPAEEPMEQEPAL

[
  {
    "smiles.record": "O=C(/C=C/c1ccc(/C=N/OCc2ccc([N+](=O)[O-])cc2)cc1)NO",
    "IC50 (µM)": 1.16
  },
  {
    "smiles.record": "O=C(/C=C/c1ccc(-c2cc(CN3CCOCC3)on2)cc1)NO",
    "IC50 (µM)": 10.8
  },
  {
    "smiles.record": "O=C(/C=C/c1ccc(/C=N/OCCN2CCOCC2)cc1)NO",
    "IC50 (µM)": 7.36
  },
  {
    "smiles.record": "COC(=O)c1ccc(CO/N=C/c2ccc(/C=C/C(=O)NO)cc2)cc1",
    "IC50 (µM)": 3.67
  }
]

###

molecular target: Histone deacetylase 2 (Homo sapiens, UniProt Q92769)
Sequence (Q92769 whole entry): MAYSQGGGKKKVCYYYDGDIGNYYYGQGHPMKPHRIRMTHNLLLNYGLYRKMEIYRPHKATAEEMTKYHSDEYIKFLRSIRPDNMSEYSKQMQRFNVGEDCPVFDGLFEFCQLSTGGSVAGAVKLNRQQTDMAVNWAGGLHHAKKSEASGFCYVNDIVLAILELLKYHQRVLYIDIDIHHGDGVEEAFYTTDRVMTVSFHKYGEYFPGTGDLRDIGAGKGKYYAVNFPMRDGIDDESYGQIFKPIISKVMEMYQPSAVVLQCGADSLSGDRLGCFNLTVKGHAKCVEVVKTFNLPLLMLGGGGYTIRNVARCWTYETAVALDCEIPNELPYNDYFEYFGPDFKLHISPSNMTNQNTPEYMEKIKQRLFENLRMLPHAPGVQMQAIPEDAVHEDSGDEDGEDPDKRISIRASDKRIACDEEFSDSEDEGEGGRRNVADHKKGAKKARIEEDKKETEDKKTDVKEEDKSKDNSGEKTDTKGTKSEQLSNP
# Lookup of reported IC50 keyed by entry
parameter: IC50

[
  {
    "smiles.record": "O=C(/C=C/c1ccc(/C=N/OCc2c(F)c(F)c(F)c(F)c2F)cc1)NO",
    "value": "11 µM"
  },
  {
    "smiles.record": "O=C(/C=C/c1ccc(/C=N/OCc2ccc([N+](=O)[O-])cc2)cc1)NO",
    "value": "2.67 µM"
  },
  {
    "smiles.record": "O=C(/C=C/c1ccc(/C=N/OCCN2CCOCC2)cc1)NO",
    "value": "27.7 µM"
  }
]

###

pIC50: −log10 of the molar value.
Here's a batch of compounds along with measured pIC50 for Polyamine deacetylase HDAC10 (Homo sapiens, UniProt Q969S8).

[
  {
    "smiles.record": "O=C(/C=C/c1ccc(-c2cc(CN3CCOCC3)on2)cc1)NO",
    "pIC50": 5.21
  },
  {
    "smiles.record": "O=C(/C=C/c1ccc(/C=N/OCCN2CCOCC2)cc1)NO",
    "pIC50": 5.11
  },
  {
    "smiles.record": "O=C(/C=C/c1ccc(/C=N/OCc2c(F)c(F)c(F)c(F)c2F)cc1)NO",
    "pIC50": 5.13
  },
  {
    "smiles.record": "O=C(/C=C/c1ccc(/C=N/OCc2ccc([N+](=O)[O-])cc2)cc1)NO",
    "pIC50": 5.80
  }
]
